target: UniProtKB P0A3G2; format: biochemical, Rhodococcus rhodochrous NCIMB 13064
Sequence (P0A3G2 whole entry): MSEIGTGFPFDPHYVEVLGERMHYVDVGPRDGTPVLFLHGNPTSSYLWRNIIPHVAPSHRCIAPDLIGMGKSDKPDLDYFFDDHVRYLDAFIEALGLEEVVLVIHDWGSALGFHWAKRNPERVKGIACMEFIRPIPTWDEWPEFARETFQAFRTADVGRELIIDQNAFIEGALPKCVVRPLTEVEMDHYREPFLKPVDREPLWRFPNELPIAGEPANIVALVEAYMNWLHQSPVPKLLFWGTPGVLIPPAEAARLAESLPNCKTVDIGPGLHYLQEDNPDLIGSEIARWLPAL
MEASURED_PARAMETER: E-values DhaA

1. CCCCCC(C)Br (racemic): 2.9
2. CC(Br)CCBr (racemic): 1.3
3. CC(Br)CBr (stereo not drawn): 1.3
4. CC(CCl)CBr (racemic): 1.7
5. CCCCC(C)Br (racemic): 4

---

Items are presented alongside their recorded E-values DhlA.
molecular target: haloalkane dehalogenase DhlA (Xanthobacter autotrophicus); type: biochemical, Xanthobacter autotrophicus GJ10
Sequence (P22643 whole entry): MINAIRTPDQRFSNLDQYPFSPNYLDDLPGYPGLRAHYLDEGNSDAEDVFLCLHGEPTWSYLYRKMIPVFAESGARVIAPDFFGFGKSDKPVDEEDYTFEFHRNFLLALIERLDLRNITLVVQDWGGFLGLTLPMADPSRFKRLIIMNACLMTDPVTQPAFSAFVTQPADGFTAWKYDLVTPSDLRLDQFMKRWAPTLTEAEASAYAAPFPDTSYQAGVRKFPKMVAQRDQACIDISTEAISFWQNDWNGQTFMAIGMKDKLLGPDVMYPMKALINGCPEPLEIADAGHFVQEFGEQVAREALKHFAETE
MEASURED_PARAMETER: E-values DhlA

1. CC(Cl)CCCl (racemic) [1,3-dichlorobutane]: 2.8
2. CC(Br)CBr (stereo not drawn) [1,2-dibromopropane]: 3
3. CCCCCC(C)Br (racemic) [2-bromoheptane]: 2.4
4. CC(CCl)CBr (racemic) [1-bromo-3-chloro-2-methylpropane]: 1.8
5. COC(=O)C(Br)CCBr (racemic) [methyl 2,4-dibromobutyrate]: 1.6
6. CCC(Br)CBr (racemic) [1,2-dibromobutane]: 1.1
7. CCCC(C)Br (racemic) [2-bromopentane]: 5.5
8. CC(Cl)CCl (stereo not drawn) [1,2-dichloropropane]: 2
9. CC(Br)CCBr (racemic) [1,3-dibromobutane]: 2

---

biological target: haloalkane dehalogenase LinB L177V (Sphingobium indicum, UniProt D4Z2G1, L177V); format: biochemical
Sequence (D4Z2G1 whole entry L177V, looked up): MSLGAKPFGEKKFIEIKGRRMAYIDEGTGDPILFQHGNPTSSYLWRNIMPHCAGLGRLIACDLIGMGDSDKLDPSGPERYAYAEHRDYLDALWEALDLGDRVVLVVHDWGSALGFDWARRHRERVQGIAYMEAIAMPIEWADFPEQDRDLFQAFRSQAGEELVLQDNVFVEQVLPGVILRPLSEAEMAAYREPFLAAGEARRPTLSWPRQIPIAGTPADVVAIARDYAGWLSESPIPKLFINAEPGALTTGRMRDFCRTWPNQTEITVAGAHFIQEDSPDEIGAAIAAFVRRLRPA
Items are presented alongside their recorded Relative activities (% of wt) L177V.
MEASURED_PARAMETER: Relative activities (% of wt) L177V

1) CCCCI: 101 % of wt
2) ICCCI: 206 % of wt
3) BrCCBr: 84 % of wt
4) C=C(C)CCl: 79 % of wt
5) CCCCBr: 132 % of wt

---

Items are presented alongside their recorded Relative activities (% of wt) wt1.
target: haloalkane dehalogenase LinB wild type (Sphingobium indicum); format: biochemical, Sphingomonas paucimobilis UT26
Sequence (D4Z2G1 whole entry): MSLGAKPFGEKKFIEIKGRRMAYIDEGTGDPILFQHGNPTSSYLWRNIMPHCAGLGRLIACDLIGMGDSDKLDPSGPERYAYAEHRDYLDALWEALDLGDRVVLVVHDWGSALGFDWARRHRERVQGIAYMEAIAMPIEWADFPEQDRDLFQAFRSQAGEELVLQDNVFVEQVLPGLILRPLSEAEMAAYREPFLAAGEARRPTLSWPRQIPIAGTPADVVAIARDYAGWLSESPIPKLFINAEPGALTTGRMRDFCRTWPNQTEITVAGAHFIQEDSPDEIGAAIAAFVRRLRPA
MEASURED_PARAMETER: Relative activities (% of wt) wt1

1. BrCCBr: 100 % of wt
2. CCCCBr: 100 % of wt
3. C=C(C)CCl: 100 % of wt
4. ICCCI: 100 % of wt
5. CCCCI: 100 % of wt

---

target: haloalkane dehalogenase LinB L177F (Sphingobium indicum, UniProt D4Z2G1, L177F); assay type: biochemical
MEASURED_PARAMETER: Relative activities (% of wt) L177F

1. C=C(C)CCl: 98 % of wt
2. CCCCI: 126 % of wt
3. BrCCBr: 70 % of wt
4. ICCCI: 130 % of wt
5. CCCCBr: 243 % of wt

---

target: haloalkane dehalogenase LinB L177C (Sphingobium indicum, UniProt D4Z2G1, L177C); type: biochemical
Sequence (D4Z2G1 whole entry L177C, looked up): as the sequence (D4Z2G1 whole entry) above, with L177C counted along it
MEASURED_PARAMETER: Relative activities (% of wt) L177C

1) ICCCI: 192 % of wt
2) C=C(C)CCl: 157 % of wt
3) BrCCBr: 52 % of wt
4) CCCCBr: 243 % of wt
5) CCCCI: 210 % of wt

---

target: haloalkane dehalogenase DbjA (Bradyrhizobium diazoefficiens, UniProt P59337); type: biochemical, Bradyrhizobium japonicum USDA110
Sequence (P59337 whole entry): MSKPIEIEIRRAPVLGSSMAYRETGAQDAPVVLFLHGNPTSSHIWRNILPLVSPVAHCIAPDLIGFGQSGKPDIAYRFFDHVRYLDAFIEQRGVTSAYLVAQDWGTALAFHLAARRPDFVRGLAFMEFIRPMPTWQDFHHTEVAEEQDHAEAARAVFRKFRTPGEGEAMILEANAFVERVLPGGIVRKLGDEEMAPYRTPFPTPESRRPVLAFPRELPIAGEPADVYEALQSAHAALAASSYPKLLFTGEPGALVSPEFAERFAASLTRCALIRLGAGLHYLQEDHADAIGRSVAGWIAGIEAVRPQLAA
MEASURED_PARAMETER: E-values DbjA

1. CC(Br)CBr (stereo not shown): 2.6
2. COC(=O)C(Br)CCBr (racemic) [methyl 2,4-dibromobutyrate]: 1.3
3. CC(CCl)CBr (racemic): 1.4
4. CC(Cl)CCCl (racemic): 1.0
5. CCOC(=O)C(C)Br (racemic) [ethyl 2-bromopropionate]: 194
6. CC(Br)CCBr (racemic): 1.4
7. CCCCCC(C)Br (racemic): 28

Data origin: patent US7632666B2
